System: HCT-116 colon
Experiment: NCI tumour cell line growth inhibition, 48 h

molecule | TGI
N#CC(NNC(=O)Cc1ccccc1)c1ccc([N+](=O)[O-])cc1 (configuration not stated) | > 100 µM
O=C(/C=C/c1ccc([N+](=O)[O-])cc1)N1CCN(CCOC(c2ccc(F)cc2)c2ccc(F)cc2)CC1 | > 100 µM
CC(NNC(=O)c1ccncc1)c1ccccc1 (configuration not stated) | > 100 µM
CC(C)CNC1=NCC(C)S1 (configuration not stated) | > 100 µM
Cc1ccc(/C(=N/NS(=O)(=O)c2cc(C)c(Cl)cc2Cl)Sc2cc(Cl)c(C)cc2S(N)(=O)=O)cc1 | > 100 µM
NC(=O)N/N=C\CC(O)(C(F)(F)Cl)C(F)(F)Cl | > 10 µM
c1cc[c]([Ge]([O]c2cccc3cccnc23)([c]2ccccc2)[c]2ccccc2)cc1 | 12.7 µM
Cc1ccc(NC(=O)C2C3C=CC(O3)C2C(=O)O)cc1 (configuration not stated) | > 100 µM
CCOC(=O)c1cc(=O)c2cccc3c2n1CCS3 | > 100 µM
Cc1cccc2c(=O)c3c(sc12)c(NCCCNCCO)nc1ccccc13 | 3.03 µM
Oc1nc(N2CCOCC2)sc1/C=C1\C=Nc2ccccc21 | > 100 µM
CCc1cccc(C(C)C)c1NC(=O)/C(=N\NC(N)=O)C(C(=O)OC)c1cnc2ccccc2n1 (configuration not stated) | 86.6 µM
COC(=O)[C@H](Cc1cn(C)cn1)NC(=O)[C@H](CC(C)C)NC(=O)Nc1cc(C(F)(F)F)cc(C(F)(F)F)c1 | 4.14 µM
COc1ccc(OC)c(N2CC(O)=C(c3nc4ccccc4s3)C2=N)c1 | > 100 µM
Nc1nc(Cl)c(N)c(NCC2(CO)CCC(OCc3ccccc3)C2)n1 (configuration not stated) | > 100 µM
CC1(O)CC2C(CC1SC1CC3C(CC1(C)O)C3(C)C)C2(C)C (configuration not stated) | > 100 µM
Fc1cc2nc3n(c2cc1F)C(c1c(F)cccc1F)SC3 (configuration not stated) | 54.1 µM
CCCCCCCCCCCCc1ccc(S(=O)(=O)O)cc1.[Cu+2] | > 100 µM
CCOC(=O)C1CC(=O)C=C2CCCCC21 (configuration not stated) | > 100 µM
c1ccc(/C(=N\Nc2nc3ccccc3[nH]2)c2ccccn2)cc1 | 4.52 µM
Cn1cnc([N+](=O)[O-])c1Sc1n[nH]c(-c2ccc(Cl)cc2)n1 | 58.1 µM
N#Cc1ccc(C2ON=C(c3ccccc3)N2C23CC4CC(CC(C4)C2)C3)cc1 (configuration not stated) | > 10 µM
